The measured values listed here are drawn from patent US12668594B2.

target: TYK2 (Homo sapiens); test: HEK-Blue IFNα/β reporter assay (SEAP) for TYK2 pseudokinase inhibition; assay type: cell-based; conditions: HEK-Blue IFNα/β cells, 1 ng/mL human recombinant IFNα
Sequence (P29597 whole entry): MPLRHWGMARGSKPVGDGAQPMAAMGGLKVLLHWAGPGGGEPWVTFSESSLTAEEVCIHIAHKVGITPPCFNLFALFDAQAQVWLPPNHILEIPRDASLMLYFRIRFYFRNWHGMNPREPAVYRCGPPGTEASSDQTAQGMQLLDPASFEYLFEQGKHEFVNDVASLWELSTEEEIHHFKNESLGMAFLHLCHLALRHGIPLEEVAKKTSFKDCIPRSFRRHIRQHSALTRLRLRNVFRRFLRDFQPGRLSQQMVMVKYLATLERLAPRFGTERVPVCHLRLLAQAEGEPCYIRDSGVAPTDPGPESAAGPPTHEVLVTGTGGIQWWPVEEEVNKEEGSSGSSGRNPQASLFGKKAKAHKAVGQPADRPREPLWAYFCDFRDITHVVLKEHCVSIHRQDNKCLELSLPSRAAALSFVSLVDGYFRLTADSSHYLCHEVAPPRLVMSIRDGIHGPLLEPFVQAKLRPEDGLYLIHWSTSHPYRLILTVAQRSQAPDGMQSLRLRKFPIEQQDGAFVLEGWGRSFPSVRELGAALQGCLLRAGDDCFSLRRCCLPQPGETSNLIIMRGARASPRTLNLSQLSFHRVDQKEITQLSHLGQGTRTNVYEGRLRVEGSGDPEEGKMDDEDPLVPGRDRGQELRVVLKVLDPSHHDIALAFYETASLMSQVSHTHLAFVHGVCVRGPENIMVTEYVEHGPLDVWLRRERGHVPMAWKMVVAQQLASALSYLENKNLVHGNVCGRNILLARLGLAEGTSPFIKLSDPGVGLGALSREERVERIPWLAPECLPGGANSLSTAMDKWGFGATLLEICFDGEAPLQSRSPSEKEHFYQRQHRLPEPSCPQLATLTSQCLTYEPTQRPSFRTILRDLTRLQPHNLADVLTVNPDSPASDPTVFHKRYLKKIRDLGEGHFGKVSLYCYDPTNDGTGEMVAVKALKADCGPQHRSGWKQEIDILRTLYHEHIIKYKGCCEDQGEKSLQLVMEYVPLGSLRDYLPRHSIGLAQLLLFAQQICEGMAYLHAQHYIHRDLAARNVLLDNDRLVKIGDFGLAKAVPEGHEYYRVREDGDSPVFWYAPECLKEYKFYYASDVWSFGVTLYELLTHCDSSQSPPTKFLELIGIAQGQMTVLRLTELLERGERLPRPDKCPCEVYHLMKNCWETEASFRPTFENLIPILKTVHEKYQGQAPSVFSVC
pIC50: −log10 of the molar value.
# maps each entry to its pIC50

{"chemical smiles": "O=c1[nH]n(-c2ccc(C(F)(F)F)cc2)c2cc(Nc3ccc(F)cn3)ncc12", "study target": "TYK2 (Homo sapiens)", "pIC50": "> 5.00"}
{"chemical smiles": "O=c1[nH]n(-c2cccc(F)c2)c2cc(Nc3ccc(F)cn3)ncc12", "study target": "TYK2 (Homo sapiens)", "pIC50": "> 5.00"}
{"chemical smiles": "O=C(Nc1cc2c(cn1)c(=O)[nH]n2-c1cc(Cl)cc(Cl)c1)C1CC1", "study target": "TYK2 (Homo sapiens)", "pIC50": "< 4.05"}
{"chemical smiles": "COc1cccc(-n2[nH]c(=O)c3cnc(Nc4ccnc(OC)n4)cc32)c1", "study target": "TYK2 (Homo sapiens)", "pIC50": "< 4.05"}
{"chemical smiles": "Cc1cc(Nc2cc3c(cn2)c(=O)[nH]n3-c2ccc(OCC(F)(F)F)cc2)nc(C)n1", "study target": "TYK2 (Homo sapiens)", "pIC50": "> 5.00"}
{"chemical smiles": "Cc1cc(Nc2cc3c(cn2)c(=O)[nH]n3-c2cccc(F)c2F)nc(C)n1", "study target": "TYK2 (Homo sapiens)", "pIC50": "> 5.00"}
{"chemical smiles": "Cc1cc(Nc2cc3c(cn2)c(=O)[nH]n3-c2cccc(F)c2)nc(C)n1", "study target": "TYK2 (Homo sapiens)", "pIC50": "> 5.00"}

Let's switch to this compound now.
Exercise: Give the measured pIC50 of "Cc1cc(Nc2cc3c(cn2)c(=O)[nH]n3-c2ccccc2)nc(C)n1" .
Solution: > 5.00
